Each recorded value in this set is attributed to ChEMBL document CHEMBL3988442.

# Tested on: Trypanosoma cruzi
# protocol details: Trypanosoma cruzi phosphomannomutase and mannose-1-phosphate guanylyltransferase assay
# Assay type: functional
# Parameters: scale not given: direction of the effect not stated beside the values
# protocol conditions: 10 µM
reported property: Percent Effect (%)
Numeric answer only, unit % assumed.

Recorded results for 5 compounds are shown here.
NC(=O)COc1cccc(C(=O)Nc2cnc3n2CCCC3)c1    -1.26
COCCC(=O)N1C[C@@H]2COC[C@]2(COCc2cccnc2)C1    -14.7
Cc1ccc(C(=O)N(C)Cc2cc(Br)cs2)c(=O)[nH]1    -3.8
Cc1ncc(CN(C)CC2CCCN2c2cccnn2)s1 (configuration not stated)    3.79
CCn1c(N)nc2cc(C(=O)NCCc3ccccc3C)cnc21    5.09

Indicate the recorded Percent Effect value for this compound: CN(CC(=O)N1CCC(Oc2ccccc2)CC1)c1cnccn1 4.74

Indicate the recorded Percent Effect value for this compound: CC(=O)c1cc(CC(=O)NCc2ccc(F)cc2)cs1 1.93
